Where do these numbers come from? They come from the supplement of paper PMC11451515.

- Tested on: SEM cells
- assay-details: cell viability relative to DMSO control; higher = less cytotoxic
- condition: RPMI 5 mM glucose + 10% FBS; 48 h; 0.0211 µM
readout-name: cell viability (%)
Field format: number, assumed %, no unit text.

Some solved entries appear below for comparison.
COc1ccc(/C=C/C(=O)Nc2ccccc2C(=O)O)cc1OC: 130
CC(C)(C)[C@]1(O)C[C@@H]2OC(=O)C[C@@]23C(=O)O[C@@H]2OC(=O)[C@H](O)C213 (stereo partly drawn): 148

Look up cell viability for this compound: CC(C)C[C@H](CC(=O)O)C(=O)N[C@@H](Cc1c[nH]c2ccccc12)C(=O)N[C@@H](C)c1ccccc1
116

Could you tell me which cell viability is on file for COc1cccc(OC)c1-c1cc(C(=O)NC2(C(=O)O)C3CC4CC(C3)CC2C4)nn1-c1ccnc2cc(Cl)ccc12 (stereo not drawn) ?
92.4

Query: cell viability; subject: Cc1cccc(-c2[nH]c(C(C)(C)C)nc2-c2ccc3nccnc3c2)n1
95.9

# cell viability lookup, item Cc1cnc(Nc2cccc(CN3CCOCC3)c2)nc1Nc1cccc([S+](=O)([O-])NC(C)(C)C)c1
110

Can you share its cell viability? I mean this compound: N#Cc1c(N(CC(=O)[O-])CC(=O)[O-])sc(C(=O)[O-])c1CC(=O)[O-].O.O.O.O.O.O.O.[Sr+2].[Sr+2]
138

// cell viability lookup, key: Cn1cnc(N)c2ncnc1-2
87.1
